A compilation of IC50 values for UniProt:Q13258 from the published literature.
Sequence (Q13258 whole entry): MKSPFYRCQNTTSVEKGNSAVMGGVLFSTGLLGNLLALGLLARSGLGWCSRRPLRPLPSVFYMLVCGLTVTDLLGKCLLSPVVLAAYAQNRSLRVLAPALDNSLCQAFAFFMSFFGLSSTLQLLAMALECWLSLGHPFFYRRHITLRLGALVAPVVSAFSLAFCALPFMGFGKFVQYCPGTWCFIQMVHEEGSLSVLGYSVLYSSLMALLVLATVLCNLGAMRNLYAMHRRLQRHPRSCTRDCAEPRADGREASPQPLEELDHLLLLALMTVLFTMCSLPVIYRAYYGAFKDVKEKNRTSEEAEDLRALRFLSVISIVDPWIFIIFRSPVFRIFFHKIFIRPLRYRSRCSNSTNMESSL
measured property: IC50

{"columns": ["molecule", "measured property", "recorded result"],
 "data": [
  ["CCN(Cc1cc(C(F)(F)F)ccc1-c1cc(CC(=O)O)ccc1OC)C(=O)OCc1ccccc1Cl", "IC50", "> 1 µM"],
  ["CCOc1ccc(CC(=O)O)cc1Oc1ccc(C(F)(F)F)cc1CN1C(=O)O[C@@H](c2ccccc2)[C@H]1C", "IC50", "> 1 µM"],
  ["COc1ccc(CC(=O)O)cc1Oc1ccc(-c2ccccc2S(C)(=O)=O)cc1CN1CCOC1=O", "IC50", "> 1 µM"],
  ["COc1ccc(CC(=O)O)cc1Oc1ccc(N2CCOCC2)cc1CN1CCOC1=O", "IC50", "> 1 µM"],
  ["COc1ccc(CC(=O)O)cc1-c1ccc(C(F)(F)F)cc1CN(C(C)=O)C1CCCC1", "IC50", "> 1 µM"],
  ["CCN(Cc1cc(C(F)(F)F)ccc1-c1cc(CC(=O)O)ccc1OC)C(=O)OCc1cc(Cl)cc(Cl)c1", "IC50", "> 1 µM"],
  ["COc1ccc(CC(=O)O)cc1Oc1ccc(NC(=O)c2cc(C(F)(F)F)ccc2F)cc1CN1CCOC1=O", "IC50", "> 1 µM"],
  ["O=C(O)Cc1cccc(Oc2ccc(Br)cc2CN2CC(c3ccc(Cl)cc3)CC2=O)c1 (stereo not shown)", "IC50", "0.3 to 1 µM"],
  ["COc1cccc(-c2ccc(Oc3cc(CC(=O)O)ccc3OC)c(CN3C(=O)O[C@H](c4ccccc4)[C@@H]3C)c2)c1", "IC50", "> 1 µM"],
  ["O=C(O)Cc1cc(Cl)cc(Oc2ccc(Br)cc2CN2CCOC2=O)c1", "IC50", "> 1 µM"],
  ["COc1ccc(CC(=O)O)cc1Oc1ccc(NC(=O)c2ccc(Cl)cc2Cl)cc1CSC(C)(C)C", "IC50", "< 0.3 µM"],
  ["COc1ccc(CC(=O)O)cc1Oc1ccc(S(C)(=O)=O)cc1CN1C(=O)O[C@H](c2ccccc2)[C@@H]1C", "IC50", "> 1 µM"],
  ["O=C(O)Cc1cccc(Oc2ccc(-c3cccnc3)cc2CN2CCOC2=O)c1", "IC50", "> 1 µM"],
  ["CCN(Cc1cc(C(F)(F)F)ccc1-c1cc(CC(=O)O)ccc1OC)C(C)=O", "IC50", "> 1 µM"],
  ["COc1ccc(CC(=O)O)cc1Oc1ccc(C(F)(F)F)cc1C[S+]([O-])C(C)(C)C (stereo not shown)", "IC50", "> 1 µM"],
  ["COc1ccc(CC(=O)O)cc1Oc1ccc(Cl)cc1CSCc1ccccc1", "IC50", "0.3 to 1 µM"]
]}
